Test system: COLO 205 colon
Experiment: NCI tumour cell line growth inhibition, 48 h
Measurement name: TGI (µM)
Lab book: enter the figure in µM, no units written.

stdin: Sample CCN1/C(=C/C=C/C=C/c2sc3ccccc3[n+]2CC)Sc2ccccc21 — what was its TGI?
stdout: 0.347

stdin: Sample O=C(N[C@@H]1C=CCC[C@@H]1c1ccccc1)OCc1ccccc1 — what was its TGI?
stdout: 33.1

stdin: Sample COc1cc2cn3c4ccc(O)cc4nc(N)c3c2cc1OC — what was its TGI?
stdout: 6.6

stdin: Sample CC(C)C(C/C=C1/CC(CO)(COC(=O)C(C)(C)C)OC1=O)C(C)C (stereo unspecified) — what was its TGI?
stdout: 5.32

stdin: Sample Cc1cc(Nc2cc(CN3CCOCC3)c3nc(C)c(Cc4ccc(Cl)cc4F)n3n2)n[nH]1 — what was its TGI?
stdout: 2.01
